- test name: Half life in cation adjusted Mueller-Hinton broth by liquid chromatography
- Format: physicochemical
value type: half-life (h)
The answer is to be given in h; state only the numeric part.

Ask | Can you look up the measured half-life of CC1(C)NC(=S)N(c2ccc(Cl)cc2)N1 for me?
Reply | 2.5
